// data source = ChEMBL document CHEMBL1142696

Attribute: Inhibition
Tested on: Candida albicans
Test: Inhibition of Candida albicans colony forming units (CFU) at 1e-4 M compound
Assay type: functional
Residues, ends and D or L forms follow the SMILES beside them.
Include the unit after the number when you answer.

CC(C)[C@H](NC(=O)[C@H](Cc1ccccc1)NC(=O)[C@H](CCCCN)NC(=O)CNC(=O)[C@H](Cc1c[nH]c2ccccc12)NC(=O)[C@H](C)NC(=O)[C@@H](Cc1ccc2ccccc2c1)NC(=O)[C@@H](N)Cc1c[nH]cn1)C(N)=O : 95.7%
CC(C)[C@H](NC(=O)[C@H](Cc1ccccc1)NC(=O)[C@H](CCCCN)NC(=O)CNC(=O)[C@H](Cc1c[nH]c2ccccc12)NC(=O)[C@H](CCCN=C(N)N)NC(=O)[C@@H](Cc1ccc2ccccc2c1)NC(=O)[C@H](C)N)C(N)=O : 62.8%

// Inhibition value for `CC(C)[C@H](NC(=O)[C@H](Cc1ccccc1)NC(=O)[C@H](CCCCN)NC(=O)CNC(=O)[C@H](Cc1c[nH]c2ccccc12)NC(=O)[C@H](CCCN=C(N)N)NC(=O)[C@H](N)Cc1ccc2ccccc2c1)C(N)=O` : 51.4%

Kindly note the recorded Inhibition for CC(C)[C@H](NC(=O)[C@H](Cc1ccccc1)NC(=O)[C@H](CCCCN)NC(=O)CN)C(N)=O (H-GKFV-NH2) , which is 5%

Looking up `CC(C)[C@H](NC(=O)[C@H](Cc1ccccc1)NC(=O)[C@H](CCCCN)NC(=O)CNC(=O)[C@H](C)NC(=O)[C@H](CCCN=C(N)N)NC(=O)[C@@H](Cc1ccc2ccccc2c1)NC(=O)[C@@H](N)Cc1c[nH]cn1)C(N)=O` , I found its Inhibition recorded as 24.9%

// field: Inhibition; key: CC(C)[C@H](NC(=O)[C@H](Cc1ccccc1)NC(=O)[C@@H](N)CCCCN)C(N)=O (H-Lys-Phe-Val-NH2) ; value = 2.7%

---

// reported Inhibition per item
System: Candida albicans
Assay: Inhibition of Candida albicans colony forming units (CFU) at 1e-4 M compound
Format: functional
Residues, ends and D or L forms follow the SMILES beside them.
Express the result in % but write the number alone.

Worked cases, answers included:
CC(C)[C@H](NC(=O)[C@@H]1CCCN1C(=O)[C@H](CCCCN)NC(=O)CNC(=O)[C@H](Cc1c[nH]c2ccccc12)NC(=O)[C@H](CCCN=C(N)N)NC(=O)[C@H](Cc1ccccc1)NC(=O)[C@@H](N)Cc1c[nH]cn1)C(N)=O (H-HFRWGKPV-NH2) : 59.4
CC(C)[C@H](NC(=O)[C@H](Cc1ccccc1)NC(=O)[C@H](CCCCN)NC(=O)CNC(=O)[C@@H](N)Cc1c[nH]c2ccccc12)C(N)=O (H-WGKFV-NH2) : 5.7
CC(C)[C@H](NC(=O)[C@H](Cc1ccccc1)NC(=O)[C@H](CCCCN)NC(=O)CNC(=O)[C@H](Cc1c[nH]c2ccccc12)NC(=O)[C@@H](N)CCCN=C(N)N)C(N)=O (H-RWGKFV-NH2) : 19.3

// recorded Inhibition for CC(C)[C@H](NC(=O)[C@H](Cc1ccccc1)NC(=O)[C@H](CCCCN)NC(=O)CNC(=O)[C@H](Cc1c[nH]c2ccccc12)NC(=O)[C@H](CCCN=C(N)N)NC(=O)[C@H](C)NC(=O)[C@@H](N)Cc1c[nH]cn1)C(N)=O (H-HARWGKFV-NH2) : 49.9

Form field Inhibition, entry `NC(=O)[C@H](Cc1c[nH]c2ccccc12)NC(=O)[C@H](CCCN=C(N)N)NC(=O)[C@@H](Cc1ccc2ccccc2c1)NC(=O)[C@@H](N)Cc1c[nH]cn1` : 43

---

Test system: Candida albicans
Assay: Inhibition of Candida albicans colony forming units (CFU) at 1e-4 M compound
Assay type: functional
Non-standard residues stand in square brackets, D forms with d. Residues, ends and D or L forms follow the SMILES beside them. d2Nal = N[C@H](Cc1ccc2ccccc2c1)C(=O)O
Each record here notes measured Inhibition.
Write the value in % as a bare number.

CC(C)[C@H](NC(=O)[C@H](Cc1ccccc1)NC(=O)[C@H](CCCCN)NC(=O)CNC(=O)[C@H](Cc1c[nH]c2ccccc12)NC(=O)[C@H](CCCN=C(N)N)NC(=O)[C@@H](Cc1ccc2ccccc2c1)NC(=O)[C@@H](N)Cc1c[nH]cn1)C(N)=O (H-H[d2Nal]RWGKFV-NH2) : 99.8
CC(C)[C@H](NC(=O)[C@H](Cc1ccccc1)NC(=O)[C@H](CCCCN)NC(=O)CNC(=O)[C@H](Cc1c[nH]c2ccccc12)NC(=O)[C@H](CCCNC(=N)N)NC(=O)[C@H](Cc1ccccc1)NC(=O)[C@@H](N)Cc1cnc[nH]1)C(N)=O (H-HFRWGKFV-NH2) : 90.8

Now for the compound whose Inhibition we want.
Noted for CC(C)[C@H](NC(=O)[C@@H]1CCCN1C(=O)[C@H](CCCCN)NC(=O)CNC(=O)[C@H](Cc1c[nH]c2ccccc12)NC(=O)[C@H](CCCN=C(N)N)NC(=O)[C@@H](Cc1ccc2ccccc2c1)NC(=O)[C@@H](N)Cc1c[nH]cn1)C(N)=O (H-H[d2Nal]RWGKPV-NH2) : its Inhibition reads 95.3
